The values you see were collected from patent US12371454B2.

Assign IC50 to each entry below.
Target: Kras and SOS1 (biotin-tagged human Kras loaded with GDP, His-tagged human SOS1) (Homo sapiens, UniProt P01116, G12D)
Construct: made in house; host or cells: E. coli (stated for Kras only)
Sequence (P01116 1-188 isoform P01116-2 G12D): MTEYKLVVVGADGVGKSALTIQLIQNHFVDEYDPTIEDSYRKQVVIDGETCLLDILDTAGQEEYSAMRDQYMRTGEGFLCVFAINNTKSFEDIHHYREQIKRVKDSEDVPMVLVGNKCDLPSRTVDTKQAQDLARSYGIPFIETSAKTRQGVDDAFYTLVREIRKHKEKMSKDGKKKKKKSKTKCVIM
Assay: Protein-protein interaction inhibition between Kras and SOS1 (KrasGl2D-SOS PPI) using AlphaScreen
Type: binding
Details: AlphaScreen; biotin-tagged human Kras loaded with GDP, His-tagged human SOS1; read-out: KRAS G12D-SOS PPI IC50
Positions of bridges follow the written chain, without caps; N, C: chain ends. Non-standard residues stand in square brackets, D forms with d. Residues, ends and D or L forms follow the SMILES beside them. *: point of attachment. hPhe(3-Cl-4-CF3) = N[C@@H](CCc1ccc(C(F)(F)F)c(Cl)c1)C(=O)O; NMeAbu(4,4,4-F3) = CN[C@@H](CC(F)(F)F)C(=O)O; NMe3Pal = CN[C@@H](Cc1cccnc1)C(=O)O; NMeCha = CN[C@@H](CC1CCCCC1)C(=O)O; NMeChg = CN[C@H](C(=O)O)C1CCCCC1; NMeD = CN[C@@H](CC(=O)O)C(=O)O; NMeS = CN[C@@H](CO)C(=O)O; Morpholide = C1CN(*)CCO1; NMeA = CN[C@@H](C)C(=O)O; Pyrrolidide = C1CCN(*)C1; Ac5c = NC1(C(=O)O)CCCC1; Sar = CNCC(=O)O; Propyl = CCC*
State the answer as a number, implicitly in nM.

Asked: Record request: IC50 value, item CCCOC[C@H]1C(=O)N(C)CC(=O)N[C@@H](CCc2ccc(C(F)(F)F)c(Cl)c2)C(=O)N2CCC[C@H]2C(=O)NC2(CCCC2)C(=O)N(C)[C@@H](C2CCCCC2)C(=O)N(C)[C@H](C(=O)N2CCOCC2)CC(=O)N(C)[C@@H](CC(F)(F)F)C(=O)N[C@@H]([C@@H](C)CC)C(=O)N(C)CC(=O)N(C)CC(=O)N1C [Compound 445] ([NMeAbu(4,4,4-F3)]I[Sar][Sar][NMeS](Propyl)[Sar][hPhe(3-Cl-4-CF3)]P[Ac5c][NMeChg][NMeD]-Morpholide; lactam N-11)
Given back: 0.67

Asked: Next: CC[C@H](C)[C@@H]1NC(=O)[C@H](C)N(C)C(=O)C[C@@H](C(=O)N2CCCC2)N(C)C(=O)[C@H](C2CCCCC2)N(C)C(=O)C2(CCCC2)NC(=O)[C@H](Cc2cccnc2)N(C)C(=O)[C@H](CCc2ccc(C(F)(F)F)c(Cl)c2)NC(=O)CN(C)C(=O)[C@H](CC2CCCCC2)N(C)C(=O)CN(C)C(=O)CN(C)C1=O [Compound 1834] ([NMeA]I[Sar][Sar][NMeCha][Sar][hPhe(3-Cl-4-CF3)][NMe3Pal][Ac5c][NMeChg][NMeD]-Pyrrolidide; lactam N-11)
Given back: 0.81
